Provenance of the data: paper PMC9911399

# experimental.system: T1, RBFOX1 RRM (Homo sapiens, UniProt Q9NWB1 109-208)
# T1 sequence: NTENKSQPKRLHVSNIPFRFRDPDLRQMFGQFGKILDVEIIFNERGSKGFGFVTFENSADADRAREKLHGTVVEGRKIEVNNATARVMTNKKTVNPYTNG
# test.summary: EMSA; HiTS-Eq, 1 nM pool, 10 min; buffer printed only for the single-RNA assays: 10 mM Tris pH 7.5, 150 mM NaCl, 3.4 mM EDTA, 0.001% NP-40, 30 C
# test.conditions: tags: His6 N-terminal (pET28a); label: 5' 32P
Over roughly 16,000 sequences, “ka relative to ugcaugu” has its median near 0.0091; the highest 2% begin near 0.032. The sample as a whole holds a higher share of the highest values than the screen did.
measurement.type: binding signal

input: Fill in: binding signal of GUCUGUU (DNA:RNA) RNA: GGGAGACCGGAAUUCAGAUUGUCCGUCUGUUUUAAAUCCCGUCGUAGCCACCA DNA 1: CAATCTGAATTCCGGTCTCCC DNA 2: TGGTGGCTACGACGGGATT is ___
output: 0.0246 KA relative to UGCAUGU

input: What about this binder? GUAGCGU (DNA:RNA) RNA: GGGAGACCGGAAUUCAGAUUGUCCGUAGCGUUUAAAUCCCGUCGUAGCCACCA DNA 1: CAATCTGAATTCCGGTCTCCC DNA 2: TGGTGGCTACGACGGGATT
output: 0.0174 KA relative to UGCAUGU

input: What about this binder? GGUCGAG (DNA:RNA) RNA: GGGAGACCGGAAUUCAGAUUGUCCGGUCGAGUUAAAUCCCGUCGUAGCCACCA DNA 1: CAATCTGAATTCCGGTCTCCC DNA 2: TGGTGGCTACGACGGGATT
output: 0.0142 KA relative to UGCAUGU

input: What about this binder? UCAGCGA (DNA:RNA) RNA: GGGAGACCGGAAUUCAGAUUGUCCUCAGCGAUUAAAUCCCGUCGUAGCCACCA DNA 1: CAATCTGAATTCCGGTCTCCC DNA 2: TGGTGGCTACGACGGGATT
output: 0.00561 KA relative to UGCAUGU
